Reference for the values: paper PMC5520691

Biological target: ArFP (Annexin V-Renilla luciferase RLuc8 fusion protein) (Homo sapiens)
Construct: Annexin V fused N-terminal to the RLuc8 reporter (Renilla reniformis luciferase mutant) via a short linker (GGSGGS by the primers); N-terminal 6xHis tag, pET-30 Xa/LIC, E. coli T7 Express, Ni-NTA; primers cover the Annexin V start (ATGGCACAGGTTCTC, MAQVL) and end (CGEDD)
Sequence (P08758 whole entry, the tested form may be a part): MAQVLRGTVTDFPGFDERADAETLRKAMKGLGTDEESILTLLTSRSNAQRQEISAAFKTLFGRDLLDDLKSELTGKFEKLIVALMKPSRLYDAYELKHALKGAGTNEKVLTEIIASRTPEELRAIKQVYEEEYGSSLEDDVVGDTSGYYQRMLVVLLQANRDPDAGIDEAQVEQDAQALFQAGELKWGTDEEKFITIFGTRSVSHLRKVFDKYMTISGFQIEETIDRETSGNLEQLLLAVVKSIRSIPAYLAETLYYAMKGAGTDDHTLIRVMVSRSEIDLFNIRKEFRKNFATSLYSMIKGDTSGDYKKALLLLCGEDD
Assay: isothermal titration calorimetry, vesicles titrated into protein, independent binding model
Settings: read-out: Binding affinity for PS (KD)
measurement-name: Kd (µM)
Give the quantity in µM, number only.

Query Kd on ArFP (Annexin V-Renilla luciferase RLuc8 fusion protein) (Homo sapiens) for CCCCCCCC/C=C\CCCCCCCC(=O)O[C@H](COC(=O)CCCCCCCCCCCCCCC)COP(=O)(O)OC[C@H](N)C(=O)O 20.7
